# System: UACC-257
# method-notes: NCI tumour cell line growth inhibition, 48 h
The source made the active and inactive calls. Cut-off read from the data, not from the text of the source: active = GI50 up to about 1.1 µM and inactive = higher.

- molecule: "O=[N+]([O-])c1ccc(Cl)c(C2CC(c3cccc4ccccc34)=Nc3ccccc3S2)c1 (stereo not given)"
  GI50: "31.6 µM (inactive)"
- molecule: "N/C(=N\\N/C=C1\\C=Nc2cc(C(F)(F)F)ccc2C1=O)NO"
  GI50: "> 10 µM (inactive)"
- molecule: "Clc1ccc(/C(=C\\c2ccccc2)Cn2ccnc2)cc1"
  GI50: "19.3 µM (inactive)"
- molecule: "O=C1CCC2(CCO1)OCCO2"
  GI50: "> 100 µM (inactive)"
- molecule: "COc1cc2c(c(O)c1O)-c1ccc(OC)c(=O)cc1C(NC(C)=O)CC2 (stereo not given)"
  GI50: "30.1 µM (inactive)"
- molecule: "O=C1c2scc(-c3ccc(Cl)cc3)c2-n2cccc21"
  GI50: "> 100 µM (inactive)"
- molecule: "COC(=O)C(F)C(Br)C(=O)OC (stereo not given)"
  GI50: "14.6 µM (inactive)"
- molecule: "Nc1ccccc1C(=O)/C=C/c1c(O)ccc2ccccc12"
  GI50: "> 100 µM (inactive)"
- molecule: "COc1cc(/C=C2\\N=C(c3ccccc3)N(C3Nc4cc5c(cc4S3)NC(N3C(=O)/C(=C/c4cc(OC)c(OC)c(OC)c4)N=C3c3ccccc3)S5)C2=O)cc(OC)c1OC (stereo not given)"
  GI50: "> 100 µM (inactive)"
- molecule: "N#Cc1c2c(c(Nc3cccc(C(F)(F)F)c3)n3c1nc1ccccc13)CCCC2"
  GI50: "22.2 µM (inactive)"
